tested on: sh-DNMT1 NCI-H82 cell; assay: CellTiter-Glo cell viability, sh-DNMT1 NCI-H82 cell (DNMT1 knocked down); format: cell-based, human; conditions: Homo sapiens, NCI-H82, NCI-H82 with DNMT1 knocked down by shRNA, intracellular ATP, read-out: inhibitory effect on sh-DNMT1 NCI-H82 (IC50)
Could you please report measured pIC50 for the items listed next?
Numbers only, as −log10 of the molar value.

Worked examples follow.
{"Compound": "COc1ccc2c(c1NCCc1ccccc1)C(C(Cl)(Cl)Cl)N1CCc3cc4c(cc3C1=C2)OCO4 (stereo not drawn)", "Measured": 5.59}
{"Compound": "COc1ccc2c(c1OC)C(C1CCCC1)N1CCc3cc4c(cc3C1=C2Cc1ccc(C(C)C)cc1)OCO4 (stereo not drawn)", "Measured": 5.59}

# ---- query compound ----
Input line: I'd like to know its pIC50. The compound in question is [2H]C1c2c(ccc(OC)c2OCCC)C=C2c3cc4c(cc3CCN21)OCO4 (stereo not drawn)
Output line: 5.51

====

Could you please report measured IC50 for the items listed next?
system: Kelly; test: CellTiter-Glo cell viability, brain tumor cell line Kelly; type: cell-based; conditions: Homo sapiens, 72 h, brain neuroblastoma cell, 3 days of culture, read-out: inhibitory effect on Kelly (IC50)
Numbers only, in µM.

Worked examples follow.
{"Compound": "COc1ccc2c(c1OC)CN1CCc3cc4c(cc3C1=C2Cc1ccc(OC(F)(F)F)cc1)OCO4", "Unit Of Measurement": "µM", "Measured": 1.32}
{"Compound": "COc1ccc2c(c1OC)C(C1CCC1)N1CCc3cc4c(cc3C1=C2)OCO4 (stereo not shown)", "Unit Of Measurement": "µM", "Measured": 1.98}
{"Compound": "CCCOc1c(OC)ccc2c1C(C(Cl)(Cl)Cl)N1CCc3cc4c(cc3C1=C2)OCO4 (stereo not shown)", "Unit Of Measurement": "µM", "Measured": 3.59}
{"Compound": "COc1ccc2c(c1OCCCCN)C(C)N1CCc3cc4c(cc3C1=C2)OCO4 (stereo not shown)", "Unit Of Measurement": "µM", "Measured": 3.16}
{"Compound": "C1=C2c3cc4c(cc3CCN2C(C2CCCC2)c2c1ccc1c2OCO1)OCO4 (stereo not shown)", "Unit Of Measurement": "µM", "Measured": 3.12}
{"Compound": "COc1ccc2c(c1OC)C(C1CCCC1)N1CCc3cc4c(cc3C1=C2)OCO4 (stereo not shown)", "Unit Of Measurement": "µM", "Measured": 1.12}
{"Compound": "[2H]C1c2c(ccc(OC)c2OCCC)C=C2c3cc4c(cc3CCN21)OCO4 (stereo not shown)", "Unit Of Measurement": "µM", "Measured": 1.89}
{"Compound": "COc1ccc2c(c1OCCCF)CN1CCc3cc4c(cc3C1=C2)OCO4", "Unit Of Measurement": "µM", "Measured": 3.16}
{"Compound": "COc1ccc2c(c1OC/C=C(\\C)CCC=C(C)C)C(C(Cl)(Cl)Cl)N1CCc3cc4c(cc3C1=C2)OCO4 (stereo not shown)", "Unit Of Measurement": "µM", "Measured": 3.12}

# ---- query compound ----
Input line: I'd like to know its IC50. The compound in question is COc1ccc2c(c1OCCCBr)C(C1CCCC1)N1CCc3cc4c(cc3C1=C2)OCO4 (stereo not shown)
Output line: 2.01

====

Could you please report measured pIC50 for the items listed next?
system: D341 Med; test: CellTiter-Glo cell viability, brain tumor cell line D341 Med; format: cell-based; conditions: Homo sapiens, 72 h, cerebellar medulloblastoma cell, 3 days of culture, read-out: inhibitory effect on D341 Med (IC50)
One number for each entry, as −log10 of the molar value.

For each of the molecules below, state pIC50.
1. CCCC1=C2c3cc4c(cc3CCN2C(C2CCCC2)c2c1ccc(OC)c2OC)OCO4 (stereo not drawn)
2. COc1ccc2c(c1OC)C(C1CCC1)N1CCc3cc4c(cc3C1=C2)OCO4 (stereo not drawn)
3. COc1ccc2c(c1OC)C(C1CCCC1)N1CCc3cc4c(cc3C1=C2CCCc1ccccc1)OCO4 (stereo not drawn)
4. CCCOc1c(OC)ccc2c1C(C1CCCC1)N1CCc3cc4c(cc3C1=C2)OCO4 (stereo not drawn)
5. COc1ccc2c(c1OCCCc1ccccc1)C(C(Cl)(Cl)Cl)N1CCc3cc4c(cc3C1=C2)OCO4 (stereo not drawn)
6. COc1ccc2c(c1OCCCCl)C(C1CCCC1)N1CCc3cc4c(cc3C1=C2)OCO4 (stereo not drawn)

Output line:
1. 5.80
2. 5.56
3. 5.81
4. 5.70
5. 6.02
6. 5.50

====

tested on: Con-NCI-H82 cell; assay: CellTiter-Glo cell viability, Con-NCI-H82 cell (empty-vector control); type: cell-based, human; settings: Homo sapiens, NCI-H82, NCI-H82 transfected with empty virus vector (control), intracellular ATP, read-out: inhibitory effect on Con-NCI-H82 (IC50)
Could you please report measured pIC50 for the items listed next?
Numbers only, as −log10 of the molar value.

{"Compound": "COc1ccc2c(c1OCCCCCCCl)C(C1CCCC1)N1CCc3cc4c(cc3C1=C2)OCO4 (stereo not drawn)", "pIC50": 6.01}
{"Compound": "COc1ccc2c(c1OCCCCOc1ccccc1)C(C1CCCC1)N1CCc3cc4c(cc3C1=C2)OCO4 (stereo not drawn)", "pIC50": 5.99}
{"Compound": "COc1ccc2c(c1OCCCc1ccccc1)C(C(Cl)(Cl)Cl)N1CCc3cc4c(cc3C1=C2)OCO4 (stereo not drawn)", "pIC50": 6.29}
{"Compound": "COc1ccc2c(c1OC)C(C1CCCC1)N1CCc3cc4c(cc3C1=C2CCCc1ccccc1)OCO4 (stereo not drawn)", "pIC50": 5.90}
{"Compound": "CCCCN1CCN(c2c(OC)ccc3c2C(C(Cl)(Cl)Cl)N2CCc4cc5c(cc4C2=C3)OCO5)CC1 (stereo not drawn)", "pIC50": 5.26}

For each of the compounds below, state pIC50.
1. COc1ccc2c(c1OCCF)CN1CCc3cc4c(cc3C1=C2)OCO4
2. CCCCC1=C2c3cc4c(cc3CCN2C(C(Cl)(Cl)Cl)c2c1ccc(OC)c2OC)OCO4 (stereo not drawn)
3. COc1ccc2c(c1N1CCC(Cl)CC1)CN1CCc3cc4c(cc3C1=C2)OCCO4
4. CC1=C2c3cc4c(cc3CCN2C(C(Cl)(Cl)Cl)c2c1ccc1c2OCO1)OCO4 (stereo not drawn)
5. CC1c2c(ccc3c2OCO3)C=C2c3cc4c(cc3CCN21)OCO4 (stereo not drawn)
6. COc1ccc2c(c1OC)C(C1CCCC1)N1CCc3cc4c(cc3C1=C2CCCCCCCl)OCO4 (stereo not drawn)

Output line:
1. 5.86
2. 5.53
3. 5.67
4. 4.83
5. 5.26
6. 5.95

For each of the compounds below, state pIC50.
1. COc1ccc2c(c1OC)C(=C(Cl)Cl)N1CCc3cc4c(cc3C1=C2)OCO4
2. CCCOc1c(OC)ccc2c1CN1CCc3cc4c(cc3C1=C2)OCO4
3. C=CCOc1c(OC)ccc2c1C(C(Cl)(Cl)Cl)N1CCc3cc4c(cc3C1=C2)OCO4 (stereo not drawn)
4. C1=C2c3cc4c(cc3CCN2C(C2CCCC2)c2c1ccc1c2OCO1)OCO4 (stereo not drawn)

Output line:
1. 5.36
2. 6.28
3. 5.88
4. 5.73

====

system: CFPAC-1; experiment: CellTiter-Glo cell viability, tumor cell line CFPAC-1; type: cell-based; conditions: CFPAC-1, 72 h; human pancreatic cancer cell; 3 days of culture; read-out: inhibitory effect on CFPAC-1 (IC50)
Property Label: pIC50
Numbers only, as −log10 of the molar value.

For each of the compounds below, state pIC50.
1. COc1ccc2c(c1OCCCc1ccccc1)C(C(Cl)(Cl)Cl)N1CCc3cc4c(cc3C1=C2)OCO4 (stereo not drawn)
2. COc1ccc2c(c1OC)C(C1CCCCC1)N1CCc3cc4c(cc3C1=C2)OCO4 (stereo not drawn)
3. COc1ccc2c(c1OC)C(C1CCCC1)N1CCc3cc4c(cc3C1=C2)OCO4 (stereo not drawn)

Output line:
4.79
4.96
4.74

====

tested on: sh-DNMT1 NCI-H82 cell; test: CellTiter-Glo cell viability, sh-DNMT1 NCI-H82 cell (DNMT1 knocked down); format: cell-based, human; conditions: Homo sapiens, NCI-H82, NCI-H82 with DNMT1 knocked down by shRNA, intracellular ATP, read-out: inhibitory effect on sh-DNMT1 NCI-H82 (IC50)
Property Label: pIC50
One number for each entry, as −log10 of the molar value.

{"Compound": "COc1ccc2c(c1N1CCC(C)CC1)C(C1CCCC1)N1CCc3cc4c(cc3C1=C2)OCO4 (stereo not drawn)", "Assay Target": "sh-DNMT1 NCI-H82 cell", "Measured": 5.73}
{"Compound": "COc1ccc2c(c1OC)C(C1CCCC1)N1CCc3cc4c(cc3C1=C2CCCCCCBr)OCO4 (stereo not drawn)", "Assay Target": "sh-DNMT1 NCI-H82 cell", "Measured": 5.54}
{"Compound": "CCC1=C2c3cc4c(cc3CCN2C(C(Cl)(Cl)Cl)c2c1ccc(OC)c2OC)OCO4 (stereo not drawn)", "Assay Target": "sh-DNMT1 NCI-H82 cell", "Measured": 5.03}
{"Compound": "COc1ccc2c(c1OC)C(C1CCCC1)N1CCc3cc4c(cc3C1=C2CCCCCCCl)OCO4 (stereo not drawn)", "Assay Target": "sh-DNMT1 NCI-H82 cell", "Measured": 5.54}

For each of the compounds below, state pIC50.
1. COc1ccc2c(c1OCCCCCCBr)C(C)N1CCc3cc4c(cc3C1=C2)OCO4 (stereo not drawn)
2. CC1=C2c3cc4c(cc3CCN2C(C(Cl)(Cl)Cl)c2c1ccc1c2OCO1)OCO4 (stereo not drawn)
3. C1=C2c3cc4c(cc3CCN2C(C2CCCC2)c2c1ccc1c2OCO1)OCO4 (stereo not drawn)
4. COc1ccc2c(c1OC)C(C)N1CCc3cc4c(cc3C1=C2CCCCc1ccccc1)OCO4 (stereo not drawn)

Output line:
1. 5.30
2. 4.85
3. 5.30
4. 5.36

Input line: I'd like to know its pIC50. The compound in question is COc1ccc2c(c1OCCCBr)C(C1CCCC1)N1CCc3cc4c(cc3C1=C2)OCO4 (stereo not drawn)
Output line: 5.20
